biological target: human DLL3 protein expressed on CHO-K1 recombinant cells (human DLL3 extracellular segment fused to EpCAM transmembrane and intracellular regions) (human) (UniProt Q9NYJ7); experiment: FACS, CHO-K1 hDLL3 cells, 0.0064 nM antibody
Sequence (Q9NYJ7 other isoform, or with tags, fused parts or gaps limits assumed): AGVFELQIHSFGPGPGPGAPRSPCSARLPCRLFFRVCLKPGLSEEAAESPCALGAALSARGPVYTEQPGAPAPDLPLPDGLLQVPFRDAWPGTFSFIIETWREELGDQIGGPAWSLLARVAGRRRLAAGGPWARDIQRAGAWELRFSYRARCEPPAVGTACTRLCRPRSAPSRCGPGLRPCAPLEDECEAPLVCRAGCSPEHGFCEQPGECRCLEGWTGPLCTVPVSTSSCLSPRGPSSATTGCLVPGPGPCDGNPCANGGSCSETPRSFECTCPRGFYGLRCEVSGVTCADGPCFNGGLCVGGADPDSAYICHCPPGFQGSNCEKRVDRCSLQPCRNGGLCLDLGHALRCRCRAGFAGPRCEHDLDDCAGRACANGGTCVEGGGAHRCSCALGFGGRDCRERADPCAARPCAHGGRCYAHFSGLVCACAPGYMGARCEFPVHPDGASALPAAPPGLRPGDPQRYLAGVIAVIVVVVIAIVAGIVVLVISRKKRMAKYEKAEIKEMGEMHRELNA
measurement-type: MFI (MFI)
Numbers only, in MFI.

So what does the record say about MFI for Hab013VL2VH2a-hFc (scFv, part only; not given: scFv linker and human IgG1 Fc, V domains shown, not shown: another chain or arm of the molecule; a dimerising Fc or GST; small tags and cut ends) VL: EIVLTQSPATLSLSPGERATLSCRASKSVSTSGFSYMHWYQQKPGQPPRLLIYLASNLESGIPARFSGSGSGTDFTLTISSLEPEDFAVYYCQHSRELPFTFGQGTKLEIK VH: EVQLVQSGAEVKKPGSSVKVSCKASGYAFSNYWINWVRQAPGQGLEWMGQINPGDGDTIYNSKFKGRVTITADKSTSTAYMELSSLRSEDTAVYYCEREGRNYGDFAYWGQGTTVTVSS ?
270
